B1: tRNA (parent)
chain: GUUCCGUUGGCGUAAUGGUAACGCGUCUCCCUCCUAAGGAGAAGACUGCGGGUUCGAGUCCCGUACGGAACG

# Variants of: B1
# METHOD NOTES: yeast fitness relative to wild type (ratio to wild type); higher = fitter; tRNA-Arg(CCU), competitive growth, 37 C, YPD
This sample holds only a part of the variants without activity.
Consider the following variants; for each one, report its yeast fitness.
Number, no unit, nothing else.

Quick note, yeast fitness for C4U G41A landed at 1.02

Quick note, yeast fitness for A36C G41A U53C A70C landed at 0.526

Quick note, yeast fitness for U7C C49U landed at 0.873

Quick note, yeast fitness for U3C C31U A57G landed at 0.778

Quick note, yeast fitness for C5U U7C C46U landed at 0.728

Quick note, yeast fitness for U2A A15U C22A A45G C46A U53C landed at 0.589

Quick note, yeast fitness for U3G C11U G67A landed at 0.564

Quick note, yeast fitness for U28A U53A landed at 0.6

Quick note, yeast fitness for G23C C29G A43U G50A A65C landed at 0.542

Quick note, yeast fitness for C24U A42C landed at 0.994

Quick note, yeast fitness for A21G U32C A65U G68A landed at 0.63
